Tested on: DeltatarO mutant
Assay: S. aureus survival, RN4220 and DeltatarO strains – OD600, teichoic acid synthesis inhibitors, primary screen (AID 463173)
Settings: S. aureus RN4220 wild type/DeltatarO growth, OD600, 18 h, screened at 18.75 µg/mL (by protocol)
Screen size: about 52,000 compounds; about 4,300 (8.3%) were called active. Cut-off read from the data, not from the text of the source: active = survival mostly below about 52% (no sharp cut-off); inactive = mostly above about 56%. This is one part of a sample in which actives are shown more often than they occur.
The reply should be one of these categories: true (active), false (inactive)

Take a look at these entries with their results.
Cc1ccc(-n2ncc3c(NCCC4=CCCCC4)ncnc32)cc1C
false
Cc1ccc(-c2nc(CS(=O)(=O)CC(=O)NCCc3ccccc3)c(C)o2)cc1
false
CCCOc1ccc(-c2nonc2NC(=O)c2oc3ccc(C)cc3c2C)cc1OCCC
false

In: Tell me the recorded outcome of this test for CCOc1ccc(-c2nonc2NC(=O)c2oc3ccc(C)cc3c2C)cc1OCC .
Out: false

In: Tell me the recorded outcome of this test for Cc1ccc(C)c(CN2CCC(CNC(=O)Cn3ncc4c([nH]c5ccccc54)c3=O)CC2)c1 .
Out: false

In: Tell me the recorded outcome of this test for CCCS(=O)(=O)NCCc1sc2nc(-c3ccc(F)cc3)nn2c1C .
Out: false

In: Tell me the recorded outcome of this test for Cc1ccc(-n2ncc3c(NCCc4ccccc4)ncnc32)cc1Cl .
Out: false

---

System: DeltatarO mutant
Assay: S. aureus survival, RN4220 and DeltatarO strains – OD600, teichoic acid synthesis inhibitors, primary screen (AID 463173)
Conditions: S. aureus RN4220 wild type/DeltatarO growth, OD600, 18 h, stronger effect = lower value, screened at 18.75 µg/mL (by protocol)
About 4,300 (8.3%) of roughly 52,000 compounds were called active. This is one part of a sample in which actives are shown more often than they occur.
Labelling: survival reported below 80% becomes Criterion met; at or above becomes Criterion not met.

COc1cc(OC)c(NC(=O)Nc2nnc(N(C)C3CCCCC3)s2)cc1Cl
Criterion met
Cn1c(=O)c2c([nH]c(=O)n2Cc2ccc(Cl)cc2Cl)n(C)c1=O
Criterion met
Cc1ccc(NC(=O)Nc2nnc(N(C)C3CCCCC3)s2)c(Cl)c1
Criterion not met
Cc1ccc(S(=O)(=O)c2cn(Cc3cccc(C)c3)c3cc4c(cc3c2=O)OCO4)cc1
Criterion not met

In: # TODO verify survival < 80% strictly for this molecule: CCCCOC(=O)c1ccc(NC(=O)Cn2nnc3sc4c(c3c2=O)CCCC4)cc1
Out: Criterion met

In: # TODO verify survival < 80% strictly for this molecule: COC(=O)c1ccccc1NC(=S)N(Cc1ccco1)Cc1cc2cc(C)ccc2[nH]c1=O
Out: Criterion not met

In: # TODO verify survival < 80% strictly for this molecule: COc1ccc(NC(=O)Nc2nnc(N(C)C3CCCCC3)s2)c(OC)c1
Out: Criterion met

In: # TODO verify survival < 80% strictly for this molecule: COc1ccc(-c2cc(C(F)(F)F)nc(SCCC(=O)Nc3ccccc3F)n2)cc1
Out: Criterion met

In: # TODO verify survival < 80% strictly for this molecule: Cc1ccc(Cn2cc(CCC(=O)NCc3ccccc3F)c3ccccc32)cc1
Out: Criterion met

In: # TODO verify survival < 80% strictly for this molecule: CCOC(=O)c1ccccc1NC(=O)N1CC(C)Oc2ccc(C)cc21 (stereo unspecified)
Out: Criterion met
